TGI for assorted compounds
tested on: KM12 colon; assay: NCI tumour cell line growth inhibition, 48 h
Measure: TGI

| Compound | Measure | Reported measurement |
| --- | --- | --- |
| O=C(/C=C/c1ccc[nH]1)c1ccc(-n2ccc(C(F)(F)F)n2)cc1 | TGI | 8.95 µM |
| NC(N)=NCCCC(=O)O | TGI | > 100 µM |
| Cc1cc(/N=C/c2ccc(N(C)C)cc2)n(-c2ccccc2)n1 | TGI | > 100 µM |
| Cc1nc(N)sc1N=Nc1ccccc1Br | TGI | 51.1 µM |
| NC(=O)c1c(NC(=O)c2ccccc2)sc2c1CCC(=O)C2 | TGI | 5.61 µM |
| NC1CCN(Cc2ccccc2)CC1 | TGI | > 100 µM |
| CCN(CC)CCNc1nc(N)c(C#N)c(C#N)c1C#N | TGI | > 10 µM |
| COCC(OC)C(CC=C(C#N)C#N)OC (stereo unspecified) | TGI | > 100 µM |
| COC(=O)/C(=N\NC(N)=S)C(C(=O)OC)C(=O)C(=O)Nc1ccc(C)cc1 (stereo unspecified) | TGI | > 100 µM |
| NC(N)=N/N=C/c1c(Cl)cccc1Cl | TGI | 59.1 µM |
| CC(=O)ON1CCCC(P(=O)(OCCSC(=O)C(C)(C)C)OCCSC(=O)C(C)(C)C)C1=O (stereo unspecified) | TGI | 13.8 µM |
| COc1c(O)c2c(=O)cc3c4c5c(cc(=O)c6c(O)c(OC)c(CC(C)O)c(c(c1CC(C)O)c24)c65)OCO3 (stereo unspecified) | TGI | 4.09 µM |
| Nc1ncc(-c2ccc3ncnc(Nc4ccc(F)c(Cl)c4)c3c2)cn1 | TGI | > 100 µM |
| CC(C)(C)[Si](C)(C)OCC1OC(n2ccc(=O)[nH]c2=O)C(O[Si](C)(C)C(C)(C)C)/C1=C/C#N (stereo unspecified) | TGI | > 42.2 µM |
| O=c1c(F)cn(Cc2ccc(C34CC5CC(CC(C5)C3)C4)c(O)c2)c(=O)n1Cc1ccc(C23CC4CC(CC(C4)C2)C3)c(O)c1 | TGI | 32.8 µM |
| CCCCCC#CCOC(=O)C(=[N+]=[N-])P(=O)(c1ccccc1)c1ccccc1 | TGI | > 10 µM |
| Cc1nc(C)c(C(=O)NNC(=O)C[N+](C)(C)C)cc1C(=O)NNC(=O)C[N+](C)(C)C | TGI | > 100 µM |
| S=c1c2cn[nH]c2nc2scc(-c3ccc(Cl)cc3)n12 | TGI | 28.8 µM |
| O=C(O)[C@H]1CCCN1CP(=O)(O)CN1CCC[C@@H]1C(=O)O | TGI | > 100 µM |
| N[C@@H](Cc1ccccc1)C(=O)N1CCC[C@@H]1P(=O)(Oc1ccccc1)Oc1ccccc1 | TGI | > 100 µM |
| BrC(=C(c1ccc(OC2CCCCO2)cc1)c1ccc(OC2CCCCO2)cc1)c1ccccc1 (stereo unspecified) | TGI | > 100 µM |
